Each entry below lists one item and its recorded TGI value.
# Test system: MCF7 breast
# assay method text: NCI tumour cell line growth inhibition, 48 h
Number in µM, nothing else.

Enter TGI (test system MCF7 breast) for COc1cc(OC2OC(C)C(O)C(O)C2O)cc2oc(-c3ccc(O)cc3)c(CC=C(C)C)c(=O)c12 (stereo not drawn)
48.2

Now for a further molecule.
Enter TGI (test system MCF7 breast) for COc1cccc(-c2nc3sccn3c2-c2ccnc(NCCNC(=O)Nc3cccc(C(F)(F)F)c3)n2)c1
13.3

---

# System: EKVX NSCLC
# assay method text: NCI tumour cell line growth inhibition, 48 h
assay readout: TGI

Name the recorded TGI of the item COc1cc(-c2cc(=O)c3cc4c(cc3[nH]2)OCO4)cc(OC)c1OC in your answer.
> 100 µM

Name the recorded TGI of the item Cc1ccc2c(c1)OC1Nc3ccccc3C1=C2O (centres undefined) in your answer.
86.9 µM

Name the recorded TGI of the item O=C(Nc1cccc(-c2cn3ccccc3n2)c1)c1ccncc1 in your answer.
> 100 µM

Name the recorded TGI of the item COC(OC)C(O)C1OC=CC1n1cnc2c(N)ncnc21 (centres undefined) in your answer.
> 100 µM

Name the recorded TGI of the item COC(=O)C(COC(=O)/C=C/c1ccc(OC(C)=O)c(OC(C)=O)c1)OC(=O)/C=C/c1ccc(OC(C)=O)c(OC(C)=O)c1 (centres undefined) in your answer.
36.9 µM

Others:
Name the recorded TGI of the item CC1CC(c2ccccc2)=Nc2ccccc2S1(=O)=O (centres undefined) in your answer.
39.6 µM

Name the recorded TGI of the item COc1ccc(/C=C/c2cc(OC)c(OC)c(OC)c2)cc1NC(=O)/C=C/c1ccc(F)cc1 in your answer.
> 100 µM
